test system: MCF7; assay: Antiproliferative activity against human MCF7 cell line at 1000 uM relative to control; format: functional
*1 amine or outer side, *2 acyl side, *3 side chain or, on linkers, in order; H or OH if unused. Where a SMILES comes first, the peptide text is derived from it. [ ]: non-standard residue; d: D form. X1 = O=C(C(N[*:1])C1C2CC3CC(C2)CC1C3)[*:2]; X2 = O=C(C1(N[*:1])C2CC3CC(C2)CC1C3)[*:2]
endpointName: inhibition at 1000 µM (%)
Please respond with the number in % and leave the unit unwritten.

Field: example entries. Status: answers known.
compound: N[C@@H](Cc1ccc(O)cc1)C(=O)N[C@@H](C(=O)O)C1C2CC3CC(C2)CC1C3 (some centres undefined)
unitAbbrev: %
inhibition at 1000 µM: 18.7
--
compound: N[C@@H](Cc1ccc(O)cc1)C(=O)N[C@H](C(=O)NCC(=O)O)C1C2CC3CC(C2)CC1C3 (some centres undefined)
unitAbbrev: %
inhibition at 1000 µM: 21.2
--
compound: N[C@@H](Cc1ccc(O)cc1)C(=O)N[C@H](C(=O)O)C1C2CC3CC(C2)CC1C3 (some centres undefined)
unitAbbrev: %
inhibition at 1000 µM: 17.8
--
compound: N[C@@H](Cc1ccc(O)cc1)C(=O)NC1(C(=O)O)C2CC3CC(C2)CC1C3 (some centres undefined)
unitAbbrev: %
inhibition at 1000 µM: 7.5

Consider the compound shown here: CSCC[C@H](NC(=O)[C@H](Cc1ccccc1)NC(=O)CNC(=O)C(NC(=O)[C@@H](N)Cc1ccc(O)cc1)C1C2CC3CC(C2)CC1C3)C(=O)O (some centres undefined) (H-Y[X1]GFM-OH) What is its recorded inhibition at 1000 µM?
29.9

inhibition at 1000 µM lookup needed for CSCC[C@H](NC(=O)[C@H](Cc1ccccc1)NC(=O)CNC(=O)CNC(=O)[C@@H](N)Cc1ccc(O)cc1)C(=O)NC1(C(=O)O)C2CC3CC(C2)CC1C3 (some centres undefined) (H-YGGFM[X2]-OH) , thanks.
25.9

Look up inhibition at 1000 µM: CSCC[C@H](NC(=O)[C@H](Cc1ccccc1)NC(=O)CNC(=O)C1(NC(=O)[C@@H](N)Cc2ccc(O)cc2)C2CC3CC(C2)CC1C3)C(=O)O (some centres undefined) (H-Y[X2]GFM-OH)
22.8

Look up inhibition at 1000 µM: CSCC[C@H](NC(=O)[C@H](Cc1ccccc1)NC(=O)CNC(=O)CNC(=O)[C@@H](N)Cc1ccc(O)cc1)C(=O)O
15.4

For the compound shown here, N[C@@H](Cc1ccc(O)cc1)C(=O)N[C@@H](C(=O)NCC(=O)O)C1C2CC3CC(C2)CC1C3 (some centres undefined) , give the reported inhibition at 1000 µM.
15.6
